Sourced from patent US20120283184A1

Overview of reported Binding to 1 nM KDR, % across a group of binders:
Measurement Target: T1, human vascular endothelial growth factor receptor-2 Fc chimera (KDR-Fc) (human, UniProt P35968 20-764)
T1 construct: range 1-764; also called human VEGFR-2; not shown: human IgG1 Fc
T1 sequence (P35968 20-764 limits assumed, change not shown, form in doubt): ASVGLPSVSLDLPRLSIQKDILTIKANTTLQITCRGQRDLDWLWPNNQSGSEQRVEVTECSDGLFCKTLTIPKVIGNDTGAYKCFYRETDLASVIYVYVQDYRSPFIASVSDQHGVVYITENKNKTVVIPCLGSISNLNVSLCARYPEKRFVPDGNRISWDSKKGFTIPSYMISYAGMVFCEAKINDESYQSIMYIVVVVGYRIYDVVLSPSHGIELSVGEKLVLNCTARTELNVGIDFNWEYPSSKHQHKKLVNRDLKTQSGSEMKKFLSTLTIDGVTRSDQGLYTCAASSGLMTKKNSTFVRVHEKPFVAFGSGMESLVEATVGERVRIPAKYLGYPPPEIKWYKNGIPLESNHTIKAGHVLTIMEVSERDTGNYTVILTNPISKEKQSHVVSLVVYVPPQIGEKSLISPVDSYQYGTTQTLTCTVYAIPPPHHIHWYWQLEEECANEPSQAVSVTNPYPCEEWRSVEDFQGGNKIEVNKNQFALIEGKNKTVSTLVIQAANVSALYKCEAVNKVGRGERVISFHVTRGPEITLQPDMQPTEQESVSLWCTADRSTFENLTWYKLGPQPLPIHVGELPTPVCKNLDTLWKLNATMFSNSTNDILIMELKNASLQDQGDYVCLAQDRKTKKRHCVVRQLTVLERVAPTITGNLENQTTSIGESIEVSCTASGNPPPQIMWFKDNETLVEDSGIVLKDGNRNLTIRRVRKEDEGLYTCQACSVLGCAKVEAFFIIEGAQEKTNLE
Assay Explanation: radioactive equilibrium binding, 1 nM KDR-Fc, % of input
Form entry: value (%) — number only.

// below: answered binders
Binder: 2′DelC7 PR4 (designed binder) EVVAATPTSLLISWRHPHFPTRYYRITYGETGGNSPVQEFTVPLQPPTATISGLKPGVDYTITVYAVTWDQNGHVLLTPISINYRT
Readout Number: 19
--
Binder: 2′Del F1 PR4 (designed binder) EVVAATPTSLLISWRHPHFPTRYYRITYGETGGNSPVQEFTVPLQPPTATISGLKPGVDYTITVYAVTRDQYEHELLTPISINYRT
Readout Number: 20
--
Binder: 3′B8 PR4 (designed binder) EVVAATPTSLLISWRHPHFPTRYYRITYGETGGNSPVQEFTVPLQPPTATISGLKPGVDYTITVYAVTLGYHDHALFTPISINYRT
Readout Number: 14
--
Binder: 2′Del C11 PR4 (designed binder) EVVAATPTSLLISWRHPHFPTRYYRITYGETGGNSPVQEFTVPLQPPTATISGLKPGVDYTITVYAVTAGLNEHELLIPISINYRT
Readout Number: 34
--
Binder: 2′Del D5 PR4 (designed binder) EVVAATPTSLLISWRHPHFPTRYYRITYGETGGNSPVQEFTVPLQPPTATISGLKPGVDYTITVYAVTVAWNDHMLMTPISINYRT
Readout Number: 18

Incoming: Given 3′B10 PR4 (designed binder) EVVAATPTSLLISWRHPHFPTRYYRITYGETGGNSPVQEFTVPLQPPTATISGLKPGVDYTITVYAVTLAQTGRELLTPISINYRT , state its recorded Binding to 1 nM KDR, %.
Outgoing: 21

Incoming: Given 3′C3 PR4 (designed binder) EVVAATPTSLLISWRHPHFPTRYYRITYGETGGNSPVQEFTVPLQPPTATISGLKPGVDYTITVYAVTMAQNGHALFTPISINYRT , state its recorded Binding to 1 nM KDR, %.
Outgoing: 32

Incoming: Given 3′H8 PR4 (designed binder) EVVAATPTSLLISWRHPHFPTRYYRITYGETGGNSPVQEFTVPLQPPTATISGLKPGVDYTITVYAVTVGHNDRELITPISINYRT , state its recorded Binding to 1 nM KDR, %.
Outgoing: 20

Incoming: Given 2′Del D10 PR4 (designed binder) EVVAATPTSLLISWRHPHFPTRYYRITYGETGGNSPVQEFTVPLQPPTATISGLKPGVDYTITVYAVTLADNARELLTPISINYRT , state its recorded Binding to 1 nM KDR, %.
Outgoing: 34
